target-or-system: alpha1 adrenoceptor (Mus musculus, UniProt P97714+P97717+P97718)
protocol-summary: Displacement of [3H]prazosin from alpha1 adrenoceptor in C57BL/6 mouse hippocampal homogenates assessed as remaining receptor bound [3H]prazosin levels at 0.03 uM after 40 mins by liquid scintillation counting method relative to control
experimental-setup: probe [3H]prazosin, read-out: Activity
measured-property: activity at 40 min, 0.03 µM (%)

In [3]: df
Out[3]:
                               query_smiles                          target_or_system            measured_property  measured_value
0  CCN1/C(=C/c2ccc3cc(I)ccc3[n+]2CC)C=Cc2ccccc21.[I-]  alpha1 adrenoceptor (Mus musculus, UniProt P97714+P97717+P97718)  activity at 40 min, 0.03 µM             119
